Biological target: T1, HLA-A2/E7 (11-19) tetramer (human; HPV 16)
T1 construct: also called E7(11-19) peptide-MHC tetramer; E7 (11-19)-loaded tetramer
Test: tetramer flow cytometry; transfected 1:1 CD4+ and CD4+/CD8+ Jurkat-derived cells;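 note: cells transiently transfected with TCR plasmids, stained 48 h later with HLA-A*02:01 peptide-MHC tetramer plus anti-CD8 antibody, read by flow cytometry to assess CD8-independent tetramer binding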
Measured property: % cells in E7 tet-/CD8- quadrant (%)
Unit % implied. Number only.

Some binders with recorded % cells in E7 tet-/CD8- quadrant:
Binder: TCR 51 (codon optimized, cysteine modified version) (TCR, V domains shown) V domain 1: QKEVEQNSGPLSVPEGAIASLNCTYSDRGSQSFFWYRQYSGKSPELIMSIYSNGDKEDGRFTAQLNKASQYVSLLIRDSQPSDSATYLCAVNMRGGGSNYKLTFGKGTLLTVNP V domain 2: EPEVTQTPSHQVTQMGQEVILRCVPISNHLYFYWYRQILGQKVEFLVSFYNNEISEKSEIFDDQFSVERPDGSNFTLKIRSTKLEDSAMYFCAIASRVSYEQYFGPGTRLTVTE
% cells in E7 tet-/CD8- quadrant (%): 64.7
//
Binder: TCR 47 (codon optimized, cysteine modified version) (TCR, V domains shown) V domain 1: QKEVEQNSGPLSVPEGAIASLNCTYSDRGSQSFFWYRQYSGKSPELIMFIYSNGDKEDGRFTAQLNKASQYVSLLIRDSQPSDSATYLCAVNLLSGSARQLTFGSGTQLTVLP V domain 2: EPEVTQTPSHQVTQMGQEVILRCVPISNHLYFYWYRQILGQKVEFLVSFYNNEISEKSEIFDDQFSVERPDGSNFTLKIRSTKLEDSAMYFCAMTGRTTYEQYFGPGTRLTVTE
% cells in E7 tet-/CD8- quadrant (%): 56.7

--- query ---
Name the reported % cells in E7 tet-/CD8- quadrant value associated with the binder TCR 49 (codon optimized, cysteine modified version) (TCR, V domains shown) V domain 1: QKEVEQNSGPLSVPEGAIASLNCTYSDRGSQSFFWYRQYSGKSPELIMFIYSNGDKEDGRFTAQLNKASQYVSLLIRDSQPSDSATYLCAVNIGTSGTYKYIFGTGTRLKVLA V domain 2: EPEVTQTPSHQVTQMGQEVILRCVPISNHLYFYWYRQILGQKVEFLVSFYNNEISEKSEIFDDQFSVERPDGSNFTLKIRSTKLEDSAMYFCASTPRYSYEQYFGPGTRLTVTE 64.3
